The origin of these recorded values is patent US20170166631A1.

- targetEntity: T1, BSA-coupled synthetic peptide of the P-rich domain sequence of huntingtin exon 1 (coupled to BSA)
- T1 peptide: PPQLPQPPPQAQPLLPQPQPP
- testMethodNotes: ELISA
outcomeMeasure: pEC50
// pEC50 here means minus log10 of the molar concentration (mol/L)

Below, 2 binders whose answers are already recorded.
NI-302.63F3 (antibody, V domains shown) VH: QVQLVQSGSAFKKPGTSVKVSCKASGYTFETRSMNWVRQAPGQGLEYMGWINTNTGNRTYVQAFRGRFVFSLDTSVSTAYLQISNLKTEDTAVYYCARGAGGGYWFDSWGQGTLVTVSS VL: DIQMTQSPDSLAVSLGERATINCKSNQSLFYSSNNNNYLAWYQHKSGQPPKLLVYWGSTRESGVPDRFSGSGSGTDFTLTISSLQAEDVAIYYCHQYYHNPYTFGQGTKLEIK	9.52
NI-302.31F11 (antibody, V domains shown) VH: EVQLVESGGGLIQPGGSLRLSCAASGFTVSSTYMSWVRQAPGKGLECVSVIFSGADTYYADSVKGRFTVSRDNSKNTLFLQMNSLRVEDTATYYCVRHYYGSDLPSDFWGQGTLVTVSS VL: DVVMTQSPLSLPVAPGEPASISCRSSQSLLYSNGYNYLDWYLQKPGKPPQLLVYLGSDRASGVPDRFSGSGSGKDFTLNISRVEAEDVGVYYCMQGLQSPWTFGQGTKLEIK	9.30

Return reported pEC50; argument: NI-302.15D3 (antibody, V domains shown) VH: EVQLVESGGDLVQPGGSLRLSCAASGFTFSSYWMHWVRQAPGKGLVWVSRISNDGSSKTYADSVKGRFTISRDNAKNTLYLQMNSLRAEDTAVYYCAILGGYCSSTSCRPFDNWGQGTLVTVSS VL: QSALTQPASVSGSPGQSITISCTGTSSDVGVYNYVSWYQQHPGKAPKLMIFDVSNRPSGISNRFSGSKSGNTASLTISGLQAEDEADYYCSSYTSSDTWVFGGGTKLTIL
8.92

Return reported pEC50; argument: NI-302.64E5 (antibody, V domains shown) VH: EVQLVETGGGLVKPGGSLRLSCAASGFTFDQAWMSWVRQVPGKGLEWVGRIKTKTEGEATDYAAPVRGRFTISRDDSEDTVFLQMNSLKTEDTALYYCTSTGVLAAAVDVYWGQGTLVTVSS VL: DIQLTQSPDSLAVSLGERATMTCKSSQSLFYSYNNENYLAWYQQRPGQPPKLLIYWASTRESGVPDRFSGSGSGTDFTLTISSLQAEDVAVYYCQQYYSTPQTFGQGTKVDIK
10.00

Return reported pEC50; argument: NI-302.2A2 (antibody, V domains shown) VH: EVQLVESGGGLVQPGGSLRLSCAASGFTFSTYWMNWVRQAPGKGLEWVANIKPDGSDKYYVDSVKGRFTISRDNAKNSLYLQMNSLRDEDTAVYYCARGDGSGWNVYWGQGTLVTVSS VL: DIQMTQSPDSLAVSLGERATINCKSSQSLLYTSKNKDSKNYLGWYQQKPGQPPKLLIYWASTRESGVPDRFSGSGSGTDFTLTISSLQAEDVAVYYCQQYYTTPQFGGGTKVEIK
8.85
